B1: Membrane-associated guanylate kinase, WW and PDZ domain-containing protein 1, residues 352 to 401; numbered along this chain, Q96QZ7 (parent)
chain: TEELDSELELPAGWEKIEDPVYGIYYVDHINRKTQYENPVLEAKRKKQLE

# Variants of: B1
# experimental.protocol: abundance fitness (aPCA) (normalised: wild type 0, dead -1); higher = more abundant; growth selection in yeast, the domain comes from the species named
# recorded.conditions: Homo sapiens
Recorded abundance fitness values for a group of variants are listed next.
experimental.readout: abundance fitness

>>> test_value("I30P")
-0.208
>>> test_value("S6E")
-0.183
>>> test_value("K46H")
0.173
>>> test_value("N31D")
-0.28
>>> test_value("S6W")
-0.44
>>> test_value("K33W")
-0.347
>>> test_value("G13C")
-0.339
>>> test_value("E7Q")
-0.404
>>> test_value("L49H")
-0.073
>>> test_value("W14E")
-0.416
>>> test_value("E37R")
-0.401
